Test system: corn (Ze)
test_details: Test Example 5: selectivity for a crop plant by soil treatment in upland field
Format: in vivo
Set-up: scale not given here
run_conditions: dose 25 gai/10a, 21st day after treatment, index per Table 44
property_name: Ze (herbicidal effect index on crop)

compound | property_name | data_value
Cc1cccc(CC(=O)N(C)C(c2cncnc2C(F)(F)F)C(C)C)c1 (racemic) [Compound 1-51] | Ze (herbicidal effect index on crop) | 0
CC(C)C(c1cncnc1C(F)(F)F)N(C)C(=O)Cc1ccc(Cl)cc1F (racemic) [Compound 1-46] | Ze (herbicidal effect index on crop) | 0
Cc1ccc(CC(=O)N(C)C(c2cncnc2C(F)(F)F)C(C)(C)C)cc1 (racemic) [Compound 1-55] | Ze (herbicidal effect index on crop) | 0
CC(C(=O)N(C)C(c1cncnc1C(F)(F)F)C(C)C)c1ccc(Cl)cc1 (mixture of isomers) [Compound 1-71] | Ze (herbicidal effect index on crop) | 0
CC(C)C(c1cncnc1C(F)(F)Cl)N(C)C(=O)Cc1ccccc1 (racemic) [Compound 1-15] | Ze (herbicidal effect index on crop) | 1
CC(C)C(c1cncnc1C(F)(F)F)N(C)C(=O)Cc1cccc(Br)c1 (racemic) [Compound 1-70] | Ze (herbicidal effect index on crop) | 1
Cc1ccc(CC(=O)N(C)C(c2cncnc2C(F)(F)F)C(C)C)cc1 (racemic) [Compound 1-23] | Ze (herbicidal effect index on crop) | 1
CC(C)C(c1cncnc1C1CC1)N(C)C(=O)Cc1ccc(Cl)cc1 (racemic) [Compound 1-78] | Ze (herbicidal effect index on crop) | 0

###

System: rice (Or)
test_details: Test Example 4: selectivity for a crop plant by flooded paddy field treatment
Format: in vivo
Design: scale not given here
run_conditions: rice transplanted at second leaf stage, dose 25 gai/10a, 21st day after treatment, index per Table 44
property_name: Or (herbicidal effect index on crop)

compound | subject_of_test | data_value
C#CCN(C(=O)Cc1cccc(F)c1)C(c1cncnc1C(F)(F)F)C(C)C (racemic) [1-569] | rice (Or) | 1
CC(C)C(c1cncnc1-c1ccccc1)N(C)C(=O)Cc1ccc(Cl)cc1 (racemic) [1-324] | rice (Or) | 1
Cc1ncncc1C(N(C)C(=O)Cc1ccc(Cl)cc1)C(C)(C)C (racemic) [Compound 1-161] | rice (Or) | 0
CCc1ncncc1C(N(C)C(=O)Cc1ccc(Cl)cc1)C(C)(C)C (racemic) [1-566] | rice (Or) | 1
CC(C)C(c1cncnc1C(F)(F)F)N(C)C(=O)OCc1ccccc1 (racemic) [Compound 1-118] | rice (Or) | 0
CCCc1ncncc1C(CCC)N(C)C(=O)Cc1ccc(Cl)cc1 (racemic) [1-494] | rice (Or) | 1
C#CCN(C(=O)Cc1ccc(C)cc1)C(CCC)c1cncnc1CC (racemic) [1-609] | rice (Or) | 1
CCOC(OCC)C(c1cncnc1C(C)C)N(C)C(=O)Cc1ccccc1 (racemic) [1-454] | rice (Or) | 1
CC(C)C(c1cncnc1C(F)(F)F)N(C)C(=O)NCc1ccccc1 (racemic) [1-461] | rice (Or) | 1
CCCN(C(=O)Cc1ccc(C#N)cc1)C(c1cncnc1C(F)(F)F)C(C)C (racemic) [Compound 1-99] | rice (Or) | 1
CC(C)C(c1cncnc1C(F)(F)F)N(C(=O)Cc1ccccc1)C(C)C (racemic) [Compound 1-103] | rice (Or) | 1
CC(C)c1ncncc1C(C(C)C)N(C)C(=O)Cc1ccc(Cl)cc1 (racemic) [Compound 1-130] | rice (Or) | 1
CC(C)C(c1cncnc1C(F)(F)F)N(C)C(=O)Cc1ccc(F)c(F)c1F (racemic) [1-417] | rice (Or) | 1
C#CCN(C(=O)Cc1ccc(F)cc1)C(c1cncnc1C(F)(F)F)C(C)C (racemic) [Compound 1-172] | rice (Or) | 1
CCC(C)C(c1cncnc1C(F)(F)F)N(C)C(=O)Cc1ccc(Cl)cc1F (mixture of isomers) [Compound 1-251] | rice (Or) | 1
C#CCN(C(=O)N(C)C(c1cncnc1C(F)(F)F)C(C)C)c1ccc(F)cc1 (racemic) [1-533] | rice (Or) | 1
COCc1ncncc1C(C(C)C)N(C)C(=O)C(C)c1ccc(Cl)cc1 (mixture of isomers) [1-591] | rice (Or) | 1
Cc1ccccc1OCC(=O)N(C)C(c1cncnc1C(F)(F)F)C(C)C (racemic) [Compound 1-134] | rice (Or) | 0
CC(C)C(c1cncnc1C(F)(F)F)N(C)C(=O)COc1nc2ccccc2s1 (racemic) [2-48] | rice (Or) | 1
CSc1ncncc1C(C(C)C)N(C)C(=O)Cc1ccccc1 (racemic) [Compound 1-150] | rice (Or) | 1
Cc1ccc(CC(=O)N(C)C(c2cncnc2C(F)F)C(C)C)cc1 (racemic) [Compound 1-166] | rice (Or) | 1
CC(C)C(c1cncnc1C(F)(F)F)N(C)C(=O)COc1cccc(Cl)c1 (racemic) [Compound 1-133] | rice (Or) | 1
Cc1ccc(CC(=O)N(C)C(c2ccc(C)cc2)c2cncnc2C(F)(F)F)cc1 (racemic) [1-228] | rice (Or) | 0
CC(C)C(c1cncnc1C(F)(F)F)N(C)C(=O)COc1cccc(F)c1 (racemic) [Compound 1-126] | rice (Or) | 1
CCN(C(=O)Cc1cccs1)C(c1cncnc1C(F)F)C(C)C (racemic) [2-7] | rice (Or) | 1
COC(C)(OC)c1ncncc1C(C(C)C)N(C)C(=O)Cc1ccc(Cl)cc1 (racemic) [1-517] | rice (Or) | 1
C#CCN(C(=O)Cc1ccc(Cl)s1)C(c1cncnc1C(F)(F)F)C(C)C (racemic) [2-74] | rice (Or) | 1
Cc1ccc(CC(=O)N(C)C(c2cncnc2C(F)(F)F)C(C)C)cc1Cl (racemic) [Compound 1-121] | rice (Or) | 1
CCN(C(=O)Cc1ccccc1)C(c1cncnc1C(F)F)C(C)C (racemic) [Compound 1-168] | rice (Or) | 1
CC(=O)c1ncncc1C(C(C)C)N(C)C(=O)Cc1ccc(C)cc1 (racemic) [1-529] | rice (Or) | 1
COc1ccccc1C(c1cncnc1C(F)(F)F)N(C)C(=O)Cc1ccc(C)cc1 (racemic) [1-491] | rice (Or) | 0
CC(C)C(c1cncnc1C(F)(F)F)N(C)C(=O)Cc1ccc(Cl)cc1Cl (racemic) [Compound 1-124] | rice (Or) | 0
C#CCN(C(=O)Cc1ccccc1)C(c1cncnc1CC)C(C)C (racemic) [1-558] | rice (Or) | 1

###

Test system: soybean (G1)
test_details: Test Example 5: selectivity for a crop plant by soil treatment in upland field
Format: in vivo
Design: scale not given here
run_conditions: dose 25 gai/10a, 21st day after treatment, index per Table 44
Method: In a 80 cm^2 plastic pot, upland soil was filled, and seeds of barnyard grass (Ec), green foxtail (Se), soybean (G1), wheat (Tr) and corn (Ze) were sown and covered with soil. A wettable powder prepared in accordance with Formulation Example 1 was diluted with water and uniformly applied to the soil surface by a small size spray at a rate of 100 l per 10 ares so that the dose of the active ingredient would be 25 g per 10 ares. […]

compound | Gl (herbicidal effect index on crop)
COCc1ccc(CC(=O)N(C)C(c2cncnc2C(F)(F)F)C(C)C)cc1 (racemic) [Compound 1-76] | 0
CCC(C)C(c1cncnc1C(F)(F)F)N(C)C(=O)Cc1ccc(C)cc1 (mixture of isomers) [Compound 1-60] | 1
CC(C)Oc1ccc(CC(=O)N(C)C(c2cncnc2C(F)(F)F)C(C)C)cc1 (racemic) [Compound 1-97] | 3
Cc1cccc(CC(=O)N(C)C(c2cncnc2C(F)(F)F)C(C)C)c1 (racemic) [Compound 1-51] | 0
Cc1ccc(CC(=O)N(C)C(c2cncnc2C(F)(F)F)C(C)(C)C)cc1 (racemic) [Compound 1-55] | 1
CC(C)C(c1cncnc1C(F)(F)F)N(C)C(=O)Cc1ccc(OC(F)(F)F)cc1 (racemic) [Compound 1-95] | 1
Cc1ccc(CC(=O)N(C)C(c2cncnc2C)C(C)C)cc1 (racemic) [Compound 1-89] | 0
CCCN(C(=O)Cc1ccc(Cl)cc1)C(c1cncnc1C(F)(F)F)C(C)C (racemic) [Compound 1-49] | 1
CC(C)C(c1cncnc1C(F)(F)F)N(C)C(=O)Cc1ccc(Cl)cc1F (racemic) [Compound 1-46] | 1
CC(C)C(c1cncnc1C(F)(F)F)N(C)C(=O)Cc1cccc(Br)c1 (racemic) [Compound 1-70] | 1
Cc1ncncc1C(C(C)C)N(C)C(=O)Cc1ccc(Cl)cc1 (racemic) [Compound 1-56] | 0
CC(C)C(c1cncnc1C(F)(F)F)N(C)C(=O)Cc1ccc(I)cc1 (racemic) [Compound 1-42] | 0
CC(C)C(c1cncnc1C(F)(F)F)N(C(=O)Cc1ccc(F)cc1)C1CC1 (racemic) [Compound 1-83] | 1
CC(C)C(c1cncnc1C(F)(F)F)N(C)C(=O)Cc1ccccc1F (racemic) [Compound 1-100] | 0
CC(C)C(c1cncnc1C(F)(F)F)N(C)C(=O)CCc1ccccc1 (racemic) [Compound 1-77] | 1
CC(C)C(c1cncnc1C(F)(F)F)N(C)C(=O)COc1ccc(Cl)cc1 (racemic) [Compound 1-65] | 0

Reference source for all entries: patent US6806230B1
